Observable: Ki

[ask] Fill in Ki for CC(=O)NC(CC(C)C)C(=O)N1CCCC1P(=O)(O)CC(Cc1ccccc1)C(=O)O (stereo unspecified) tested with Angiotensin-converting enzyme (Homo sapiens, UniProt P12821).
Sequence (P12821 whole entry): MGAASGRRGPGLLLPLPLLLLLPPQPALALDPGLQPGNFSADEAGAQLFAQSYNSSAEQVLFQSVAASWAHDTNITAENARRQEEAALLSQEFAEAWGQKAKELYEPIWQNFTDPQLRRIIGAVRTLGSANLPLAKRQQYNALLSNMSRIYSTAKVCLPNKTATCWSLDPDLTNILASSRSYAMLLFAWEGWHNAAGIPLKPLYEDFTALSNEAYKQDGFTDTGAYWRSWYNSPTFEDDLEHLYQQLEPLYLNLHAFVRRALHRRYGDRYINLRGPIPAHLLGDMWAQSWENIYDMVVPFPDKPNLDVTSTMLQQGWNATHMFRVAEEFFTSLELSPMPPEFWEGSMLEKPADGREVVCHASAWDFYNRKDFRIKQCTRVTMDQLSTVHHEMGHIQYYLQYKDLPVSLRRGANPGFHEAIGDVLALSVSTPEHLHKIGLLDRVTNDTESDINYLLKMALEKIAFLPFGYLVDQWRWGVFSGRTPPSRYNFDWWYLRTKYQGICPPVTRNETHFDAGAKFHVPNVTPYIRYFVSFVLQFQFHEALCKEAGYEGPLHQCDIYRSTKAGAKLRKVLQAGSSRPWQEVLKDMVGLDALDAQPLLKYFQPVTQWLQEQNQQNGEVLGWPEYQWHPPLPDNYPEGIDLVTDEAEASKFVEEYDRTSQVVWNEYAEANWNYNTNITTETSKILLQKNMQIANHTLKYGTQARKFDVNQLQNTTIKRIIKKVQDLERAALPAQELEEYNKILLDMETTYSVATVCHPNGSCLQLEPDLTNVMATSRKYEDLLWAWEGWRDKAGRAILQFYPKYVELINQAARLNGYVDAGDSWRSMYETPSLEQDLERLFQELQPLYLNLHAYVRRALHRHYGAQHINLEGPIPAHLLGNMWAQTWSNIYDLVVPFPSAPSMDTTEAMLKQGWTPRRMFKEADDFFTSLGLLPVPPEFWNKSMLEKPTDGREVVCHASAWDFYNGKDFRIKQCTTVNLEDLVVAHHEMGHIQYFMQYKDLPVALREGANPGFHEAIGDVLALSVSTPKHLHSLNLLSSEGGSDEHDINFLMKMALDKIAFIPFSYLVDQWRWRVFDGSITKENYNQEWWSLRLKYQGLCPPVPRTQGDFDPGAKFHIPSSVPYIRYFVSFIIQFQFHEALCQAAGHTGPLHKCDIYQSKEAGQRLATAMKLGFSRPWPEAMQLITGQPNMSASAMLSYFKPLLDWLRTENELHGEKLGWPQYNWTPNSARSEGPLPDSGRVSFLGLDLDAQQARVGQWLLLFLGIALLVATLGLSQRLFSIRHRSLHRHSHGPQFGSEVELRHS
[reply] > 10 µM
